assayInfo: Half life in human liver microsome at 1 uM
recordedConditions: microsomes
valueKind: half-life at 1 µM (min)
Answers are plain numbers, in min.

Answer with reported half-life at 1 µM of C[C@H](Cc1cccc(CC(=O)NCc2cc(C(F)(F)F)ccc2F)c1)NC[C@H](O)c1ccc(O)c(CO)c1 9

----------
assayInfo: Clearance in iv dosed rat
Type: ADME, organism-based
recordedConditions: in vivo
valueKind: clearance (mL/min/kg)
Give bare numbers, in mL/min/kg.

Recall and state the measured clearance for C[C@H](Cc1cccc(CC(=O)NCc2ccc(Cl)c(Cl)c2)c1)NC[C@H](O)c1ccc(O)c(CO)c1 . 123

----------
List of EC50 tested on Beta-2 adrenergic receptor (Homo sapiens).
Sequence (P07550 whole entry): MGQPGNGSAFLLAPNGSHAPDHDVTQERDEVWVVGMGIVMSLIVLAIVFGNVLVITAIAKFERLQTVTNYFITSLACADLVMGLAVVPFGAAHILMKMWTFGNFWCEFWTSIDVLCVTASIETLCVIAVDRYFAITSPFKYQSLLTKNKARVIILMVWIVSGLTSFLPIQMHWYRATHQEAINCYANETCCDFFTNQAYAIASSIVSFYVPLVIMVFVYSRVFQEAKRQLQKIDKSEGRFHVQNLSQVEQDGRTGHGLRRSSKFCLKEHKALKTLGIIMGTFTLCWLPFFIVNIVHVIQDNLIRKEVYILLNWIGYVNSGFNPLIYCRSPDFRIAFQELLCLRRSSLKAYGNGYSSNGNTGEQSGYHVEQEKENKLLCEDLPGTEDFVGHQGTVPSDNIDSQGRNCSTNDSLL
Kindly format the answer as number then unit.

Worked cases, answers included:
[[record]]
structure = "CC(C)(Cc1cccc(CC(=O)NCc2ccccc2)c1)NC[C@H](O)c1ccc(O)c(CO)c1"
result = "0.02 nM"

[[record]]
structure = "C[C@H](Cc1cccc(CC(=O)NCc2ccccc2)c1)NC[C@H](O)c1ccc(O)c(CO)c1"
result = "0.096 nM"


Field: next compound
Determine its reported EC50: O=C(Cc1cccc(CCNC[C@H](O)c2ccc(O)c(CO)c2)c1)NCc1ccccc1 0.096 nM

----------
assayInfo: Half life in iv dosed rat
Assay type: ADME, organism-based
recordedConditions: in vivo
valueKind: half-life
Kindly report the value followed by its unit.

Determine from records and report half-life for C[C@H](Cc1cccc(CC(=O)NCc2ccc(Cl)c(Cl)c2)c1)NC[C@H](O)c1ccc(O)c(CO)c1 1.5 h

----------
assayInfo: Distribution coefficient, log D of the compound
recordedConditions: octanol/water
Values of logD strictly less than 2 map to yes, and values of at least 2 map to no.

[[record]]
compound = "OCc1cc([C@@H](O)CNCCCCCCOCCCCc2ccccc2)ccc1O [SALMETEROL]"
classification = "no"

[[record]]
compound = "C[C@H](Cc1cccc(CC(=O)NCc2ccc(Cl)c(Cl)c2)c1)NC[C@H](O)c1ccc(O)c(CO)c1"
classification = "no"

[[record]]
compound = "C[C@H](Cc1cccc(CC(=O)NCc2ccccc2)c1)NC[C@H](O)c1ccc(O)c(CO)c1"
classification = "yes"

[[record]]
compound = "C[C@H](Cc1cccc(CC(=O)NC2Cc3ccccc3C2)c1)NC[C@H](O)c1ccc(O)c(CO)c1"
classification = "yes"

[[record]]
compound = "Cc1ccc(CNC(=O)Cc2cccc(C[C@@H](C)NC[C@H](O)c3ccc(O)c(CO)c3)c2)cc1C"
classification = "no"

[[record]]
compound = "C[C@H](Cc1cccc(CC(=O)NCc2cccc3ccccc23)c1)NC[C@H](O)c1ccc(O)c(CO)c1"
classification = "yes"


Now consider a different compound.
# strict comparison: is reported logD < 2? input = CC(C)(Cc1cccc(CC(=O)NCc2ccccc2)c1)NC[C@H](O)c1ccc(O)c(CO)c1 yes

----------
assayInfo: Half life in human liver microsome at 1 uM
recordedConditions: liver microsomes
Please provide measured half-life at 1 µM for the entries that follow.

Solved entries (count: 3):
[[record]]
structure = "C[C@H](Cc1cccc(CC(=O)NCc2ccc(OC(F)(F)F)cc2)c1)NC[C@H](O)c1ccc(O)c(CO)c1"
result = "15 min"

[[record]]
structure = "Cc1ccc(CNC(=O)Cc2cccc(C[C@@H](C)NC[C@H](O)c3ccc(O)c(CO)c3)c2)cc1C"
result = "10 min"

[[record]]
structure = "C[C@H](Cc1cccc(CC(=O)NCc2ccc(Cl)c(Cl)c2)c1)NC[C@H](O)c1ccc(O)c(CO)c1"
result = "4 min"


Now examine the next entry.
Consider the compound C[C@H](Cc1cccc(CC(=O)NCc2cccc3ccccc23)c1)NC[C@H](O)c1ccc(O)c(CO)c1 and give its recorded half-life at 1 µM. 2 min

Recorded values, source ChEMBL document CHEMBL1145365.
